Test system: antioxidant response element (ARE)
testDescription: ARE reporter gene (luciferase) assay, transient transfection
Format: cell-based, human
conditionSet: FIG. 1; mean of 3-6 experiments; expressed as ratio to stimulation obtained with tBHQ; compared in words
quantityKind: stimulation of transcription of ARE reporter genes

{"compoundStructureString": "C\\C(C=O)=C/C=C/C(C)=C/C=C/C=C(C)/C=C/C=C(\\C)C=O", "assayResult": "much less active"}
{"compoundStructureString": "C\\C(C=O)=C/C=C/C=C(\\C)C=O", "assayResult": "much less active"}
